# testDetails: Plasma clearance in rat at 2 mg/kg, iv
# Assay type: ADME, organism-based
# Design: dose 2 mg/kg, route intravenous
readoutType: clearance

>>> endpointresult("O=S1(=O)N(CC[C@@H]2CNCCO2)c2ccccc2N1c1ccccc1F")
"38 mL/min/kg"

* * *

# testDetails: Ratio of drug level in brain to plasma in rat
# Type: ADME
# appliedConditions: read-out: BPR
readoutType: Kp

>>> endpointresult("O=S1(=O)N(CC[C@@H]2CNCCO2)c2ccccc2N1c1ccccc1F")
3.9

* * *

# testDetails: Half life in rat at 2 mg/kg, iv
# Assay type: ADME, organism-based
# Parameters: dose 2 mg/kg, route intravenous
# appliedConditions: in vivo
readoutType: half-life (h)

>>> endpointresult("O=S1(=O)N(CC[C@@H]2CNCCO2)c2ccccc2N1c1ccccc1F")
1.8
